Values compiled from the METLIN SMRT retention time set (Domingo-Almenara et al. 2019).

assay: gradient 5% acetonitrile 3 min, to 50% in 2 min, to 85% in 15 min, held 3 min, 100 µL/min; settings: column: Zorbax Extend-C18 2.1 x 50 mm; eluents: water / acetonitrile, 0.1% formic acid
Values of RP-LC retention time greater than or equal to 800 s map to yes (1); values below map to no (0).

- COMPOUND: "CC(NC(=O)CCCn1c2ccccc2c2cnn(C)c(=O)c21)c1ccccc1 (stereo not drawn)"
  CAT: "yes (1)"
- COMPOUND: "O=C(CN1C(=O)CC(c2ccccc2)S(=O)(=O)c2ccccc21)Nc1ccccc1F (stereo not drawn)"
  CAT: "yes (1)"
- COMPOUND: "Cn1c(=O)sc2cc(S(=O)(=O)N3CCC(C(=O)N4CCC5(CC4)OCCO5)CC3)ccc21"
  CAT: "no (0)"
- COMPOUND: "O=C(Nc1ccccc1Br)c1cnc(-c2ccccc2)nc1-c1ccncc1"
  CAT: "yes (1)"
- COMPOUND: "Fc1ccc(C(OCCN2CCN(CCCc3ccccc3)CC2)c2ccc(F)cc2)cc1"
  CAT: "yes (1)"
